# targetOrTestSystem: Avi-KRAS G12V (1-169) GppNHp/RAF1 RBD-3xFLAG (52-151) (Homo sapiens, UniProt P01116, G12V)
# Construct: Avi-KRAS G12V (1-169)
# Sequence (P01116 1-169 isoform P01116-2 G12V): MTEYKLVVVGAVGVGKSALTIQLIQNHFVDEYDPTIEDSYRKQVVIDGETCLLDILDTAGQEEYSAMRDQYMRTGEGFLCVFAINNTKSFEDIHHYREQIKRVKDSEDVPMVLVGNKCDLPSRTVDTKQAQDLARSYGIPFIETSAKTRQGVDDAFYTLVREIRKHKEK
# assay: Raf1-KRAS G12V-GppNHP disruption HTRF assay (Biological Example 1)
# Assay type: binding
# condition: KRAS G12V, GppNHp-loaded; class symbols
pIC50: −log10 of the molar value.
Reported values of pIC50 for individual entries

{"columns": ["compound", "pIC50"],
 "data": [
  ["CCN(c1nc(OC[C@@]23CCCN2C[C@H](F)C3)nc2c(F)c(-c3ccc(F)c4sc(N)c(C#N)c34)c(C(F)(F)F)cc12)[C@H]1CCN(C(=O)N(C)C2CC2)C1 (atropisomer, axis not shown)", "> 7.00"],
  ["CCN1CC[C@@H](N(CC)c2nc(OC[C@@]34CCCN3C[C@H](F)C4)nc3c(F)c(-c4ccc(F)c5sc(N)c(C#N)c45)c(C(F)(F)F)cc23)C1=O (atropisomer, axis not shown)", "6.00 to 7.00"],
  ["CCN(c1nc(OC[C@@]23CCCN2C[C@H](F)C3)nc2c(F)c(-c3ccc(F)c4sc(N)c(C#N)c34)c(C(F)(F)F)cc12)[C@H]1C[C@@H]2CCC(=O)N2C1 (atropisomer, axis not shown)", "> 7.00"],
  ["CCN(c1nc(OC[C@@]23CCCN2C[C@H](F)C3)nc2c(F)c(-c3ccc(F)c4sc(N)c(C#N)c34)c(C(F)(F)F)cc12)[C@H]1CCN(C(=O)N2CCC2)C1 (atropisomer, axis not shown)", "> 7.00"],
  ["C/C=C\\C(=O)N1CC[C@H](N(CC)c2nc(OC[C@@]34CCCN3C[C@H](F)C4)nc3c(F)c(-c4ccc(F)c5sc(N)c(C#N)c45)c(C(F)(F)F)cc23)C1 (atropisomer, axis not shown)", "> 7.00"],
  ["CCN1C[C@H](N(CC)c2nc(OC[C@@]34CCCN3C[C@H](F)C4)nc3c(F)c(-c4ccc(F)c5sc(N)c(C#N)c45)c(C(F)(F)F)cc23)CC1=O (atropisomer, axis not shown)", "6.00 to 7.00"],
  ["CCN(c1nc(OC[C@@]23CCCN2C[C@H](F)C3)nc2c(F)c(-c3ccc(F)c4sc(N)c(C#N)c34)c(C(F)(F)F)cc12)[C@H]1C[C@H]2CN(C3CCC3)C(=O)N2C1 (atropisomer, axis not shown)", "> 7.00"],
  ["CCN(c1nc(OCC23CCCN2CC(F)C3)nc2c(F)c(-c3ccc(F)c4sc(N)c(C#N)c34)c(C(F)(F)F)cc12)C1CCN(C(=O)c2ncccn2)C1 (stereo not drawn)", "> 7.00"]
]}

API: the following record is the query input.
## Task Fill in: pIC50 of CCN(c1nc(OC[C@@]23CCCN2C[C@H](F)C3)nc2c(F)c(-c3ccc(F)c4sc(N)c(C#N)c34)c(C(F)(F)F)cc12)[C@H]1CCN(C(=O)[C@@H](C)OC)[C@@H]1C (atropisomer, axis not shown) is ___
## Result 6.00 to 7.00
